- ASSAY_SYSTEM: Lysine-specific histone demethylase 1A (Homo sapiens)
- EXPERIMENT_NOTES: Inhibition of human LSD1 expressed in Escherichia coli BL21 (DE3) cells using (ARTK(diMe)QTARKSTGGKAPRKQLA peptide as substrate incubated for 30 mins by HRP reagent based fluorescence method
READOUT_LABEL: IC50 (nM)
Provide only the numeric value, understood in nM.

Asked: Recorded IC50 of CCN(CC)S(=O)(=O)c1ccc([C@H]2C[C@@H]2N)cc1 , please.
Given back: 123

====

- Test system: MV4-11
- EXPERIMENT_NOTES: Antiproliferative activity against human MV4-11 cells incubated for 48 hrs by CellTiter-Fluor cell viability assay
- Type: functional, cell-based
- SETTINGS: MV4-11, 48 h
READOUT_LABEL: pIC50
Give only the number. pIC50 is defined as minus log10 of concentration in molar units.

Asked: Query the reported pIC50 for MV4-11; item: NC1CC1c1ccc(NC(=O)c2ccc(NC(=O)OCc3ccccc3)cc2)cc1 (stereo unspecified)
Given back: 6.40
